Numbers sourced from ChEMBL document CHEMBL5325428.

- Procedure Text: Inhibition of MERS-CoV 3CLpro using FAM-SAVLQ as substrate preincubated with enzyme for 1 hr followed by susbtrate addition and measured after 1 hr by FRET assay
- Design: species or system Middle East respiratory syndrome-related coronavirus
Value Kind: IC50

1) CC(C)C[C@H](NC(=O)OCC(C)(C)[S+]([O-])c1ccccc1)C(=O)N[C@@H](C[C@@H]1CCNC1=O)C(O)S(=O)(=O)O (mixture of isomers)
250 nM
2) [2H]C([2H])(OC(=O)N[C@@H](CC(C)C)C(=O)N[C@@H](C[C@@H]1CCNC1=O)C(O)S(=O)(=O)[O-])C(C)(C)Sc1ccccc1.[Na+] (some centres undefined)
40 nM
3) CC(C)C[C@H](NC(=O)OCC(C)(C)Oc1cccc(F)c1)C(=O)N[C@H](C=O)C[C@@H]1CCNC1=O
50 nM
4) CC(C)C[C@H](NC(=O)OCC(C)(C)Oc1ccc(F)cc1)C(=O)N[C@@H](C[C@@H]1CCNC1=O)C(O)S(=O)(=O)O (some centres undefined)
40 nM

###

- Test system: SARS-CoV-2
- Procedure Text: Antiviral activity against SARS-CoV-2 Wuhan-HU-1 infected in HEK293T cells assessed as inhibition of viral replication incubated for 30 hrs by luciferase reporter gene assay
- Format: functional, organism-based
- Condition Summary: Severe acute respiratory syndrome coronavirus 2, Wuhan-HU-1, HEK-293T
Each item that follows carries a reported EC50.
Value Kind: EC50 (nM)

1. CC(C)C[C@H](NC(=O)OCc1ccccc1)C(=O)N[C@H](C=O)C[C@@H]1CCNC1=O
31
2. CC(C)C[C@H](NC(=O)OCC(C)(C)Oc1cccc(Cl)c1)C(=O)N[C@@H](C[C@@H]1CCNC1=O)C(O)S(=O)(=O)O (some centres not stated)
14
3. [2H]C([2H])(OC(=O)N[C@@H](CC(C)C)C(=O)N[C@@H](C[C@@H]1CCNC1=O)C(O)S(=O)(=O)[O-])C(C)(C)Oc1ccc(Cl)cc1.[Na+] (some centres not stated)
12
4. CC(C)C[C@H](NC(=O)OCC(C)(C)Sc1cccc(Cl)c1)C(=O)N[C@@H](C[C@@H]1CCNC1=O)C(O)S(=O)(=O)O (some centres not stated)
11
5. CC(C)C[C@H](NC(=O)OCC(C)(C)Sc1ccccc1)C(=O)N[C@@H](C[C@@H]1CCNC1=O)C(O)S(=O)(=O)O (some centres not stated)
10
6. [2H]C([2H])(OC(=O)N[C@@H](CC(C)C)C(=O)N[C@H](C=O)C[C@@H]1CCNC1=O)C(C)(C)Sc1ccccc1
11
7. [2H]C([2H])(OC(=O)N[C@@H](CC(C)C)C(=O)N[C@@H](C[C@@H]1CCNC1=O)C(O)S(=O)(=O)[O-])C(C)(C)Sc1ccccc1.[Na+] (some centres not stated)
12

###

- System Name: Replicase polyprotein 1ab (Severe acute respiratory syndrome coronavirus 2, UniProt P0DTD1)
- Procedure Text: Inhibition of N-terminal His6-tagged full length SARS-CoV-2 3CLpro using FAM-SAVLQ as substrate preincubated with enzyme for 1 hr followed by susbtrate addition and measured after 1 hr by FRET assay
pIC50: −log10 of the molar value.
Each item that follows carries a reported pIC50.
Value Kind: pIC50

1. [2H]C([2H])(OC(=O)N[C@@H](CC(C)C)C(=O)N[C@H](C=O)C[C@@H]1CCNC1=O)C(C)(C)Oc1ccc(Cl)cc1
6.77
2. CC(C)C[C@H](NC(=O)OCC(C)(C)Oc1ccccc1)C(=O)N[C@@H](C[C@@H]1CCNC1=O)C(O)S(=O)(=O)O (stereo partly drawn)
6.62
3. CC(C)C[C@H](NC(=O)OCCSc1ccccc1)C(=O)N[C@H](C=O)C[C@@H]1CCNC1=O
6.49
4. CC(C)C[C@H](NC(=O)OCC(C)(C)S(=O)(=O)c1ccccc1)C(=O)N[C@@H](C[C@@H]1CCNC1=O)C(O)S(=O)(=O)O (stereo partly drawn)
6.70
5. CC(C)C[C@H](NC(=O)OCC(C)(C)Oc1cccc(F)c1)C(=O)N[C@@H](C[C@@H]1CCNC1=O)C(O)S(=O)(=O)O (stereo partly drawn)
6.92
6. CC(C)C[C@H](NC(=O)OCC(C)(C)[S+]([O-])c1ccccc1)C(=O)N[C@H](C=O)C[C@@H]1CCNC1=O (mixture of isomers)
6.48
7. CC(C)C[C@H](NC(=O)OCC(C)(C)Sc1cccc(F)c1)C(=O)N[C@@H](C[C@@H]1CCNC1=O)C(O)S(=O)(=O)O (stereo partly drawn)
6.89
8. CC(C)C[C@H](NC(=O)OCC(C)(C)Sc1ccccc1)C(=O)N[C@H](C=O)C[C@@H]1CCNC1=O
7.15
